Measured Kd by item
MEASURED_ON: FGFR4 (Homo sapiens)
Construct: purchased DiscoveRx Corporation
ASSAY_OVERVIEW: Enzyme binding assay (KINOMEscan) FGFR4
EXPERIMENTAL_CONTEXT: pKd = -log Kd (M), read-out: FGFR4_pKd (converted)
OBSERVABLE: Kd (M)

>>> value("CNCCN(c1ccc2ncn(C3CCOCC3)c(=O)c2c1)c1cc(OC)cc(OC)c1F")
"1e-07"
>>> value("COc1cc(OC)c(F)c(N(Cc2nccn2S(=O)(=O)N(C)C)c2ccc3ncn(-c4ccncc4)c(=O)c3c2)c1")
"7.94e-07"
>>> value("COc1cc(OC)c(F)c(N(CCO)c2ccc3ncn(-c4cccnc4)c(=O)c3c2)c1F")
"5.01e-08"
>>> value("COc1cc(OC)c(F)c(N(CCO)c2ccc3ncn(C4CCNCC4)c(=O)c3c2)c1F")
"7.94e-07"
>>> value("COc1cc(OC)cc(N(CCCNC(C)C)c2ccc3ncn(C4CCOCC4)c(=O)c3c2)c1")
"1.26e-06"
>>> value("COc1cc(OC)c(F)c(N(Cc2ncc[nH]2)c2ccc3ncn(C4CCOCC4)c(=O)c3c2)c1")
"2e-07"

====

As shown below, each of these molecules has a reported Kd value.
MEASURED_ON: FGFR4 (Homo sapiens, UniProt P22455)
Construct: purchased DiscoveRx Corporation
Sequence (P22455 22-802): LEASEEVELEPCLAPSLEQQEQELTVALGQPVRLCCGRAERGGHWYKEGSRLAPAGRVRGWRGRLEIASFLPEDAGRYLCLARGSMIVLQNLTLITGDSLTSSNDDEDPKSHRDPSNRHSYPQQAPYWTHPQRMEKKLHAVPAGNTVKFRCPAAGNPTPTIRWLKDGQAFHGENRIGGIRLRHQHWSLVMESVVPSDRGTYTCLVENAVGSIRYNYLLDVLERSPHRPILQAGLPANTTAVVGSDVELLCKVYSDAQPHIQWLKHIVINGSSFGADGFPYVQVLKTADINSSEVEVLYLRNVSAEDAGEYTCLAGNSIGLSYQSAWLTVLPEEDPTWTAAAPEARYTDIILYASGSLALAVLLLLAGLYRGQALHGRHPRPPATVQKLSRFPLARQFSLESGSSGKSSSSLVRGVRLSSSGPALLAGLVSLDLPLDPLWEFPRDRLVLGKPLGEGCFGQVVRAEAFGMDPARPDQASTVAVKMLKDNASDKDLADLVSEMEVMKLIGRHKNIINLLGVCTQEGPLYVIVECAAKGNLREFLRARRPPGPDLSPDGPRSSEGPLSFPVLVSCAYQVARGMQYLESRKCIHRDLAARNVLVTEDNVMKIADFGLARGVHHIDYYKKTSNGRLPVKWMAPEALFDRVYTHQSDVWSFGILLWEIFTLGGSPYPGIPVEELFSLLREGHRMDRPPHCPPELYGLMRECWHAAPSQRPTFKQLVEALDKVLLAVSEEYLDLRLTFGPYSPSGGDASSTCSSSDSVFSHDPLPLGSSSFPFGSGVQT
ASSAY_OVERVIEW: Enzyme binding assay (KINOMEscan) FGFR4
EXPERIMENTAL_CONTEXT: pKd = -log Kd (M), read-out: FGFR4_pKd (converted)
OBSERVABLE: Kd

>>> value("CNCCN(c1cc(OC)cc(OC)c1)c1ccc2ncn(C3CCOCC3)c(=O)c2c1")
"> 3.16e-06 M"
>>> value("COc1cc(OC)c(F)c(N(Cc2nccn2S(=O)(=O)N(C)C)c2ccc3ncn(-c4cccnc4)c(=O)c3c2)c1F")
"1.26e-07 M"
>>> value("COc1cc(OC)cc(N(CCCO)c2ccc3ncn(C4CCNCC4)c(=O)c3c2)c1")
"> 3.16e-06 M"
>>> value("COc1cc(OC)c(F)c(N(Cc2nccn2S(=O)(=O)N(C)C)c2ccc3ncn(-c4ccncc4)c(=O)c3c2)c1F")
"2.51e-07 M"
>>> value("COc1cc(OC)c(F)c(N(Cc2nccn2S(=O)(=O)N(C)C)c2ccc3ncn(C4CCOCC4)c(=O)c3c2)c1")
"> 3.16e-06 M"
>>> value("COc1cc(OC)c(F)c(N(CCCO)c2ccc3ncn(C4CCNCC4)c(=O)c3c2)c1F")
"2e-07 M"
>>> value("CNCCN(c1ccc2ncn(C3CCNCC3)c(=O)c2c1)c1c(F)c(OC)cc(OC)c1F")
"1.58e-07 M"

====

MEASURED_ON: FGFR3 (Homo sapiens, UniProt P22607)
Construct: purchased DiscoveRx Corporation
Sequence (P22607 23-806): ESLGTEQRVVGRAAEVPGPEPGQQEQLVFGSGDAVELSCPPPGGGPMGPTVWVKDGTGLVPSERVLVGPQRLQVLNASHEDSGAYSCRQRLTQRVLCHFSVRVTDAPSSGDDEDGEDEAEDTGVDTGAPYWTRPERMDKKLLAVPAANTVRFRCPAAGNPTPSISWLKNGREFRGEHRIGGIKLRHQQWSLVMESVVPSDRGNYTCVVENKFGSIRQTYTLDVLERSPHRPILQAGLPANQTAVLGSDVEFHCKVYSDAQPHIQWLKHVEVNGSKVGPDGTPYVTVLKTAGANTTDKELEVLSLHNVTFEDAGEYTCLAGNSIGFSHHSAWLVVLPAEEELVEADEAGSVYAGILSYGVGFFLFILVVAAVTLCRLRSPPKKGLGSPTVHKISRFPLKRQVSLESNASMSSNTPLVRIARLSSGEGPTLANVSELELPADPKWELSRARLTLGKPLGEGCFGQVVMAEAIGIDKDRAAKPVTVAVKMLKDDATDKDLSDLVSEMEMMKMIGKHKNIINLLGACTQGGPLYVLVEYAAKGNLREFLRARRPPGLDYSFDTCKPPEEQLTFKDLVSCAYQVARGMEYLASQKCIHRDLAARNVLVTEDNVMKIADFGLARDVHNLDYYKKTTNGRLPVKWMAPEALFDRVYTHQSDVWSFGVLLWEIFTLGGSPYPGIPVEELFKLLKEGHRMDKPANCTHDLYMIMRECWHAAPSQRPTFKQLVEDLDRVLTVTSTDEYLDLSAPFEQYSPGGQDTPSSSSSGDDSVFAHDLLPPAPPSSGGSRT
ASSAY_OVERVIEW: Enzyme binding assay (KINOMEscan) FGFR3
EXPERIMENTAL_CONTEXT: pKd = -log Kd (M), read-out: FGFR3_pKd (converted)
The entries below come with measured Kd values attached.
OBSERVABLE: Kd (M)

>>> value("COc1cc(OC)c(F)c(N(CCO)c2ccc3ncn(-c4cncnc4)c(=O)c3c2)c1 [Compound 74]")
"3.98e-07"
>>> value("CNCCN(c1ccc2ncn(C3CCNCC3)c(=O)c2c1)c1cc(OC)cc(OC)c1F [Compound 58]")
"6.31e-07"
>>> value("COc1cc(OC)c(F)c(N(CCCO)c2ccc3ncn(C4CCNCC4)c(=O)c3c2)c1F [Compound 53]")
"6.31e-08"
>>> value("COc1cc(OC)cc(N(CCCNC(C)C)c2ccc3ncn(C4CCOCC4)c(=O)c3c2)c1 [Compound 73′]")
"2e-07"
>>> value("CNCCN(c1ccc2ncn(C3CCNCC3)c(=O)c2c1)c1c(F)c(OC)cc(OC)c1F [Compound 57]")
"6.31e-08"
>>> value("COc1cc(OC)c(F)c(N(CCCO)c2ccc3ncn(C4CCNCC4)c(=O)c3c2)c1 [Compound 54]")
"6.31e-07"
>>> value("COc1cc(OC)c(F)c(N(CCO)c2ccc3ncn(-c4ccncc4)c(=O)c3c2)c1 [Compound 38]")
"3.16e-08"

====

MEASURED_ON: FGFR3 (Homo sapiens, UniProt P22607)
Construct: purchased DiscoveRx Corporation
ASSAY_OVERVIEW: Enzyme binding assay (KINOMEscan) FGFR3
EXPERIMENTAL_CONTEXT: pKd = -log Kd (M), read-out: FGFR3_pKd (converted)
Method: Enzyme Binding Assays (KINOMEscan®) Kinase enzyme binding affinities of compounds disclosed herein were determined using the KINOMEscan® technology performed by DiscoveRx Corporation, San Diego, Calif., USA (www.kinomescan.com).
The following compounds are shown together with reported Kd values.
OBSERVABLE: Kd (M)

>>> value("COc1cc(OC)c(F)c(N(CCO)c2ccc3ncn(-c4cncnc4)c(=O)c3c2)c1F [Compound 76]")
"3.16e-08"
>>> value("COc1cc(OC)c(F)c(N(CCCNC(C)C)c2ccc3ncn(C4CCNCC4)c(=O)c3c2)c1 [Compound 61′]")
"6.31e-08"
>>> value("COc1cc(OC)c(F)c(N(Cc2ncc[nH]2)c2ccc3ncn(C4CCNCC4)c(=O)c3c2)c1 [Compound 45]")
"7.94e-08"
>>> value("COc1cc(OC)c(F)c(N(CCNC(C)C)c2ccc3ncn(-c4cnn(C)c4)c(=O)c3c2)c1F [Compound 19]")
"5.01e-09"
>>> value("COc1cc(OC)c(F)c(N(Cc2ncc[nH]2)c2ccc3ncn(C4CCOCC4)c(=O)c3c2)c1 [Compound 75]")
"1.58e-08"
>>> value("COc1cc(OC)c(F)c(N(CCCO)c2ccc3ncn(C4CCOCC4)c(=O)c3c2)c1 [Compound 65]")
"7.94e-08"
>>> value("COc1cc(OC)c(F)c(N(CCO)c2ccc3ncn(C4CCNCC4)c(=O)c3c2)c1 [Compound 48]")
"7.94e-07"
>>> value("COc1cc(OC)c(F)c(N(CCO)c2ccc3ncn(-c4ccncc4)c(=O)c3c2)c1F [Compound 37]")
"5.01e-09"
>>> value("COc1cc(OC)c(F)c(N(CCO)c2ccc3ncn(C4CCOCC4)c(=O)c3c2)c1 [Compound 63]")
"1.26e-07"
>>> value("COc1cc(OC)c(F)c(N(CCO)c2ccc3ncn(-c4cccnc4)c(=O)c3c2)c1F [Compound 29]")
"6.31e-09"
>>> value("COc1cc(OC)cc(N(Cc2ncc[nH]2)c2ccc3ncn(C4CCNCC4)c(=O)c3c2)c1 [Compound 44]")
"3.98e-07"
>>> value("COc1cc(OC)c(F)c(N(CCCNC(C)C)c2ccc3ncn(C4CCOCC4)c(=O)c3c2)c1 [Compound 72]")
"1.58e-08"
>>> value("COc1cc(OC)c(F)c(N(CCNC(C)C)c2ccc3ncn(-c4cccnc4)c(=O)c3c2)c1 [Compound 33]")
"7.94e-09"
>>> value("COc1cc(OC)c(F)c(N(Cc2nccn2S(=O)(=O)N(C)C)c2ccc3ncn(-c4ccncc4)c(=O)c3c2)c1 [Compound 41]")
"1.26e-07"
>>> value("COc1cc(OC)cc(N(CCCO)c2ccc3ncn(C4CCNCC4)c(=O)c3c2)c1 [Compound 55]")
"2.51e-06"

====

pIC50: −log10 of the molar value.
Form: system (FGFR1 (h) (Homo sapiens, UniProt P11362)), quantity (pIC50), values below.
OBSERVABLE: pIC50

>>> value("COc1cc(OC)c(F)c(N(Cc2ncc[nH]2)c2ccc3ncn(-c4ccccc4)c(=O)c3c2)c1F")
7.80
>>> value("COc1cc(OC)c(Cl)c(N(CCO)c2ccc3ncn(-c4ccccc4)c(=O)c3c2)c1Cl")
7.20
>>> value("COc1cc(OC)c(F)c(N(Cc2ncc[nH]2)c2ccc3ncn(-c4cnn(C)c4)c(=O)c3c2)c1F")
8.40
>>> value("COc1cc(OC)c(F)c(N(CCO)c2ccc3ncn(-c4cnn(C)c4)c(=O)c3c2)c1F")
8.80
>>> value("COc1cc(OC)c(F)c(N(CCO)c2ccc3ncn(-c4ccccc4)c(=O)c3c2)c1")
7.10
>>> value("COc1cc(OC)c(F)c(N(CCNC(C)C)c2ccc3ncn(-c4ccccc4)c(=O)c3c2)c1F")
8.20
>>> value("COc1cc(OC)c(F)c(N(Cc2ncc[nH]2)c2ccc3ncn(-c4cnn(C)c4)c(=O)c3c2)c1")
8.30

====

Measured BAF3-KDR (MIN IL3 pIC50) of individual entries
MEASURED_ON: Ba/F3-KDR-transfected cells (Homo sapiens, UniProt P35968, cells depend on it, form not given)
Construct: BAF3-KDR (MIN IL3 pIC50); other: minus IL3; 24 hours, Alamar Blue
Sequence (P35968 whole entry, looked up, change not shown): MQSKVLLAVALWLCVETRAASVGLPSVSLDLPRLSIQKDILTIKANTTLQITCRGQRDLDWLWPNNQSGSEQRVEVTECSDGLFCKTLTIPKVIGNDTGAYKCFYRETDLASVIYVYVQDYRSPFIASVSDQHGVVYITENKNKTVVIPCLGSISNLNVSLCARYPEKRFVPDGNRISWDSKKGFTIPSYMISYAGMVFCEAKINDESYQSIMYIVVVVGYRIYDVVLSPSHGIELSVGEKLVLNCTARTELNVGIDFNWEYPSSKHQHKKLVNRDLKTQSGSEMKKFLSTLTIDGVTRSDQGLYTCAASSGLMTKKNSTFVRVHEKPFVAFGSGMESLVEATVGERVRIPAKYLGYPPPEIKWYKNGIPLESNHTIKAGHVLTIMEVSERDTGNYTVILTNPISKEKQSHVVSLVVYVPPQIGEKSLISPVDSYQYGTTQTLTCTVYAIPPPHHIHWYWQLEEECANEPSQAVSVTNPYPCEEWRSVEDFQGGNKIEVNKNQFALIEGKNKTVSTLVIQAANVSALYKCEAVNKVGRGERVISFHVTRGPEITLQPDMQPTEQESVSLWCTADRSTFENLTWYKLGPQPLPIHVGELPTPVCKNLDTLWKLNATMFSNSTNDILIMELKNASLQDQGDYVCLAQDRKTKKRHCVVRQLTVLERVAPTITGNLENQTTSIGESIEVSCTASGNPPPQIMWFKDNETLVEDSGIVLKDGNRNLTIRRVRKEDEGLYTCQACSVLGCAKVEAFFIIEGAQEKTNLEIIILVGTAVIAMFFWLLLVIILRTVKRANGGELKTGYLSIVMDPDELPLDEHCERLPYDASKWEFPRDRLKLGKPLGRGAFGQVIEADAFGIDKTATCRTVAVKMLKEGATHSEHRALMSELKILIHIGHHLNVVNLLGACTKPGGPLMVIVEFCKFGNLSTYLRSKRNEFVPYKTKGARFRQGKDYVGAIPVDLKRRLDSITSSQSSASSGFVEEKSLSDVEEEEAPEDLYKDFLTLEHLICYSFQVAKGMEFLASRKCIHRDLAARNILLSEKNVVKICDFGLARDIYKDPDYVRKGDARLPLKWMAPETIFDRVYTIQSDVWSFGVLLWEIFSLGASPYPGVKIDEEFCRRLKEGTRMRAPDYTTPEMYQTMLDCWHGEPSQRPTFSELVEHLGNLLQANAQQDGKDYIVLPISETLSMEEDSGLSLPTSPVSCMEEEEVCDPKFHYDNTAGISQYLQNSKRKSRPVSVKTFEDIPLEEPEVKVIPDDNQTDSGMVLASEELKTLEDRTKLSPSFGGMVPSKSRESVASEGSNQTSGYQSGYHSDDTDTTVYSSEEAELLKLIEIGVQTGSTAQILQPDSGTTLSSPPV
ASSAY_OVERVIEW: Ba/F3-KDR (minus IL3 or plus IL3) cellular proliferation assay
Assay type: cell-based
EXPERIMENTAL_CONTEXT: 24 hours, Alamar Blue
OBSERVABLE: BAF3-KDR (MIN IL3 pIC50)

>>> value("COc1cc(OC)c(Cl)c(N(Cc2ncc[nH]2)c2ccc3ncn(-c4cnn(C)c4)c(=O)c3c2)c1Cl")
5.1
>>> value("COc1cc(OC)cc(N(CCO)c2ccc3ncn(-c4ccccc4)c(=O)c3c2)c1")
"<5"
>>> value("COc1cc(OC)cc(N(CCO)c2ccc3ncn(-c4cnn(C)c4)c(=O)c3c2)c1")
"<5"
>>> value("COc1cc(OC)c(F)c(N(CCNC(C)C)c2ccc3ncn(-c4cnn(C)c4)c(=O)c3c2)c1F")
6.2
>>> value("COc1cc(OC)c(F)c(N(CCNC(C)C)c2ccc3ncn(-c4ccccc4)c(=O)c3c2)c1F")
5.7
>>> value("COc1cc(OC)c(F)c(N(CCO)c2ccc3ncn(-c4ccccc4)c(=O)c3c2)c1")
"<5"
>>> value("COc1cc(OC)c(Cl)c(N(CCNC(C)C)c2ccc3ncn(-c4cnn(C)c4)c(=O)c3c2)c1Cl")
5.4
>>> value("COc1cc(OC)c(F)c(N(Cc2ncc[nH]2)c2ccc3ncn(-c4ccccc4)c(=O)c3c2)c1F")
"<5"
>>> value("COc1cc(OC)c(F)c(N(CCO)c2ccc3ncn(-c4ccccc4)c(=O)c3c2)c1F")
"~5"
>>> value("COc1cc(OC)c(F)c(N(CCO)c2ccc3ncn(-c4cnn(C)c4)c(=O)c3c2)c1F")
5.6
>>> value("COc1cc(OC)c(Cl)c(N(CCO)c2ccc3ncn(-c4cnn(C)c4)c(=O)c3c2)c1Cl")
"~5"
>>> value("COc1cc(OC)c(F)c(N(Cc2ncc[nH]2)c2ccc3ncn(-c4cnn(C)c4)c(=O)c3c2)c1")
"<5"
>>> value("COc1cc(OC)c(Cl)c(N(CCO)c2ccc3ncn(-c4ccccc4)c(=O)c3c2)c1Cl")
"<5"
>>> value("COc1cc(OC)cc(N(CCNC(C)C)c2ccc3ncn(-c4cnn(C)c4)c(=O)c3c2)c1")
5.2
>>> value("COc1cc(OC)cc(C(=O)c2ccc3ncn(-c4cnn(C)c4)c(=O)c3c2)c1")
"<5"
>>> value("COc1cccc(C(=O)c2ccc3ncn(-c4cnn(C)c4)c(=O)c3c2)c1")
"<5"
>>> value("CNCCN(c1ccc2ncn(-c3cnn(C)c3)c(=O)c2c1)c1c(F)c(OC)cc(OC)c1F")
6.0
>>> value("COc1cc(OC)c(F)c(N(CCO)c2ccc3ncn(-c4cnn(C)c4)c(=O)c3c2)c1")
5.2
>>> value("COc1cc(OC)c(F)c(N(Cc2ncc[nH]2)c2ccc3ncn(-c4cnn(C)c4)c(=O)c3c2)c1F")
5.3
>>> value("COc1cc(OC)c(F)c(N(CCNC(C)C)c2ccc3ncn(-c4cnn(C)c4)c(=O)c3c2)c1")
5.5
